Biological target: human KV 1.5 (IKur) (Homo sapiens, UniProt P22460)
Construct: expressed in transfected cells
Sequence (P22460 whole entry): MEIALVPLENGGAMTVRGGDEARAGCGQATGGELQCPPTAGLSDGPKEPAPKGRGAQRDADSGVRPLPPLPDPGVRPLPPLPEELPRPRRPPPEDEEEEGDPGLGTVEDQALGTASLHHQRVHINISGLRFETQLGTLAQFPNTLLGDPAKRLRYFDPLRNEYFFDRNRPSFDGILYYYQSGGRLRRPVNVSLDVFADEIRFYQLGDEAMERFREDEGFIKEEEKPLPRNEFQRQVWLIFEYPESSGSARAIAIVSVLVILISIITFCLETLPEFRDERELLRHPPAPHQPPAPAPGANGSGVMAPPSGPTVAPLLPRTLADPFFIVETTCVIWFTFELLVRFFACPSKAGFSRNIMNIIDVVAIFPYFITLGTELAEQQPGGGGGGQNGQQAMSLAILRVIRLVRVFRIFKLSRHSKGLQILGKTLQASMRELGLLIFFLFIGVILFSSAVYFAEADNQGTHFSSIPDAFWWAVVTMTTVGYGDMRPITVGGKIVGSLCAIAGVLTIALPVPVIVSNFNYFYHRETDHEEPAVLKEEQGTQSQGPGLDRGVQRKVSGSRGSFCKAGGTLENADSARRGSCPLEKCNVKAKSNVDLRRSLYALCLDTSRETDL
Assay: block of IKur current in patch clamped L-929 cells expressing human Kv1.5
Assay type: cell-based
Conditions: 0.3 μM; patch clamped mammalian L-929 cells stably expressing human Kv1.5
The compounds listed here are annotated with their KV1_5% Inh L929 @0.3 μM.
# number only, unit % dropped from output

Field KV1_5% Inh L929 @0.3 μM (entry CC(Nc1nc(-c2cncc(S(N)(=O)=O)c2)nn2ccc(-c3ccccc3)c12)c1ccccc1 (stereo not shown) ) reads 95.79

get_value(item= NS(=O)(=O)c1cncc(-c2nc(NC(CO)c3ccccn3)c3c(-c4ccccc4)ccn3n2)c1 (stereo not shown) , readout=KV1_5% Inh L929 @0.3 μM) returns 95.01

The compound NS(=O)(=O)c1cncc(-c2nc(NCC3CCCCO3)c3c(-c4ccccc4)ccn3n2)c1 (stereo not shown) showed KV1_5% Inh L929 @0.3 μM equal to 98.89

Please fill in: KV1_5% Inh L929 @0.3 μM reported for NS(=O)(=O)c1cncc(-c2nc(NC3CCCc4cccnc43)c3c(-c4ccccc4)ccn3n2)c1 (stereo not shown) = 97.64

Form: compound = OCC(O)c1cncc(-c2nc(NCc3ccccc3)c3c(-c4ccccc4)ccn3n2)c1 (stereo not shown) ; KV1_5% Inh L929 @0.3 μM = 90.60

Given item NS(=O)(=O)CCc1cncc(-c2nc(NCc3ccccn3)c3c(-c4ccccc4)ccn3n2)c1 , the value recorded as its KV1_5% Inh L929 @0.3 μM is 97.45

Input OCC(O)c1nc(NCc2ccccc2)c2c(-c3ccccc3)ccn2n1 (stereo not shown) . Output KV1_5% Inh L929 @0.3 μM: 47.37

Quick note, KV1_5% Inh L929 @0.3 μM for O=C(NCC(O)CO)c1cncc(-c2nc(NCc3ccccc3)c3c(-c4ccccc4)ccn3n2)c1 (stereo not shown) landed at 96.86

get_value(item= CC(Nc1nc(-c2cncc(S(N)(=O)=O)c2)nn2ccc(-c3ccccc3)c12)c1ccc(F)cc1 (stereo not shown) , readout=KV1_5% Inh L929 @0.3 μM) returns 95.70

Given item CC(O)c1cncc(-c2nc(NCc3ccccc3)c3c(-c4ccccc4)ccn3n2)c1 (stereo not shown) , the value recorded as its KV1_5% Inh L929 @0.3 μM is 96.63

###

Target: human KV 1.5 (IKur) (Homo sapiens, UniProt P22460)
Construct: expressed in transfected cells
Assay: block of IKur current in patch clamped L-929 cells expressing human Kv1.5
Format: cell-based
Conditions: L929, 0.3 μM; patch clamped mammalian L-929 cells stably expressing human Kv1.5; read-out: KV1_5% Inh L929 @0.3 μM
observedProperty: inhibition at 0.3 µM (%)
All answers are understood in %, so give the number only.

Look over these answered cases.
[[record]]
compound = "COc1ccc(CNC(=O)c2nc(NCc3ccccc3)c3c(-c4ccccc4)ccn3n2)c(OC)c1"
obsvalue = 88.7

[[record]]
compound = "O=C(c1cncc(-c2nc(NCc3ccccc3)c3c(-c4ccccc4)ccn3n2)c1)N(CCO)CCO"
obsvalue = 72.2


Looking up NC(=O)C(=O)Nc1cncc(-c2nc(NCc3ccccn3)c3c(-c4ccccc4)ccn3n2)c1 , I see its inhibition at 0.3 µM listed as 98.6

// NS(=O)(=O)c1cncc(-c2nc(NCC3CCCCO3)c3c(-c4ccccc4)ccn3n2)c1 (centres unmarked) : inhibition at 0.3 µM value = 93.6

Oc1ccc(-c2nc(NCc3ccccn3)c3c(-c4ccccc4)ccn3n2)cn1 has a reported inhibition at 0.3 µM of 94.2

Quick note, inhibition at 0.3 µM for NC(=O)CC(=O)Nc1cncc(-c2nc(NCc3ccccc3)c3c(-c4ccccc4)ccn3n2)c1 landed at 97.3

So, NS(=O)(=O)c1cncc(-c2nc(NCc3nccs3)c3c(-c4ccccc4)ccn3n2)c1 ? Its inhibition at 0.3 µM was 97.5

Sample NS(=O)(=O)c1ccc(-c2nc(NCc3ccccn3)c3c(-c4ccccc4)ccn3n2)cn1 ; inhibition at 0.3 µM observed: 97.8

According to the records, this compound CCS(=O)(=O)Nc1cncc(-c2nc(NCc3ccccn3)c3c(-c4ccccc4)ccn3n2)c1 displays inhibition at 0.3 µM of 97.9

// inhibition at 0.3 µM value for COc1ncc(-c2nc(NCc3nc(C)cs3)c3c(-c4ccccc4)ccn3n2)cc1S(N)(=O)=O : 97.1

# inhibition at 0.3 µM of O=C(O)c1ccc(-c2nc(NCc3ccccc3)c3c(-c4ccccc4)ccn3n2)cn1 = 17.6

GET /value?item= CC(Nc1nc(-c2cncc(S(N)(=O)=O)c2)nn2ccc(-c3ccccc3)c12)c1ccccc1 (centres unmarked) &field=inhibition at 0.3 µM returns 97.5

Per the records, this compound ( Nc1ncc(-c2nc(NCc3ccccn3)c3c(-c4ccccc4)ccn3n2)cc1S(N)(=O)=O ) has inhibition at 0.3 µM equal to 97.6

// sample COc1ccc(-c2nc(NCc3ccccn3)c3c(-c4ccccc4)ccn3n2)cn1 , its inhibition at 0.3 µM was 97

###

Target: human KV 1.5 (IKur) (Homo sapiens)
Construct: expressed in transfected cells
Assay: block of IKur current in patch clamped L-929 cells expressing human Kv1.5
Assay type: cell-based
Conditions: L929, 0.3 μM; patch clamped mammalian L-929 cells stably expressing human Kv1.5; read-out: KV1_5% Inh L929 @0.3 μM
observedProperty: inhibition at 0.3 µM (%)
Report the value in % with no unit label.

Some solved entries appear below for comparison.
[[record]]
molecule = "NC(=O)Nc1cncc(-c2nc(NCc3ccccn3)c3c(-c4ccccc4)ccn3n2)c1"
obsvalue = 96.8

[[record]]
molecule = "COc1ncc(-c2nc(NCc3cnccn3)c3c(-c4ccccc4)ccn3n2)cc1S(N)(=O)=O"
obsvalue = 82.9

[[record]]
molecule = "Nc1cncc(-c2nc(NCc3ccccn3)c3c(-c4cncc(N)c4)ccn3n2)c1"
obsvalue = 28.1

[[record]]
molecule = "O=C(O)/C=C/c1cncc(-c2nc(NCc3ccccc3)c3c(-c4ccccc4)ccn3n2)c1"
obsvalue = 92.2

[[record]]
molecule = "NS(=O)(=O)c1cccc(NC(=O)c2nc(NCc3ccccc3)c3c(-c4ccccc4)ccn3n2)c1"
obsvalue = 89.4


Lab entry: human KV 1.5 (IKur) (Homo sapiens) assay, molecule CCOC(=O)CCNC(=O)c1cncc(-c2nc(NCc3ccccc3)c3c(-c4ccccc4)ccn3n2)c1 , inhibition at 0.3 µM = 97

# lookup: COc1cccc(CNc2nc(-c3cnc(OC)c(S(N)(=O)=O)c3)nn3ccc(-c4ccccc4)c23)n1 on human KV 1.5 (IKur) (Homo sapiens), inhibition at 0.3 µM = 98.5

Value (inhibition at 0.3 µM, human KV 1.5 (IKur) (Homo sapiens)) for record NS(=O)(=O)c1cncc(-c2nc(NC(CO)c3ccccn3)c3c(-c4ccccc4)ccn3n2)c1 (centres unmarked) = 87.8

###

Molecular target: human KV 1.5 (IKur) (Homo sapiens)
Construct: expressed in transfected cells
Assay: block of IKur current in patch clamped L-929 cells expressing human Kv1.5
Format: cell-based
Conditions: L929, 0.3 μM; patch clamped mammalian L-929 cells stably expressing human Kv1.5; read-out: KV1_5% Inh L929 @0.3 μM
Form field: inhibition at 0.3 µM (one value per entry).
State the value with its unit after it.

The cases that follow already have their inhibition at 0.3 µM on record.
[[record]]
molecule = "O=C(O)c1cncc(-c2nc(NCc3ccccc3)c3c(-c4ccccc4)ccn3n2)c1"
obsvalue = "88.2%"

[[record]]
molecule = "O=S(=O)(CCCCl)Nc1cncc(-c2nc(NCc3ccccn3)c3c(-c4ccccc4)ccn3n2)c1"
obsvalue = "97.8%"

[[record]]
molecule = "COC(=O)Nc1ccccc1CNc1nc(-c2cncc(S(N)(=O)=O)c2)nn2ccc(-c3ccccc3)c12"
obsvalue = "96%"

[[record]]
molecule = "NS(=O)(=O)c1cncc(-c2nc(NCc3ccccn3)c3c(-c4ccc(F)cc4)ccn3n2)c1"
obsvalue = "91.7%"

[[record]]
molecule = "OCC(O)c1nc(NCc2ccccc2)c2c(-c3ccccc3)ccn2n1 (centres unmarked)"
obsvalue = "40.9%"


The molecule O=C(c1nc(NCc2ccccc2)c2c(-c3ccccc3)ccn2n1)N1CCN(c2ccc(O)cc2)CC1 showed inhibition at 0.3 µM equal to 49%

Noted for O=C(O)CC(=O)Nc1cncc(-c2nc(NCc3ccccc3)c3c(-c4ccccc4)ccn3n2)c1 : its inhibition at 0.3 µM reads 22.9%

Query NS(=O)(=O)c1cncc(-c2nc(NCc3ccccn3)c3c(-c4cccnc4)ccn3n2)c1 yields inhibition at 0.3 µM of 84.8%

###

The following compounds are listed with their measured inhibition at 0.3 µM values.
Target: human KV 1.5 (IKur) (Homo sapiens)
Construct: expressed in transfected cells
Experiment: block of IKur current in patch clamped L-929 cells expressing human Kv1.5
Assay type: cell-based
Details: L929, 0.3 μM; patch clamped mammalian L-929 cells stably expressing human Kv1.5; read-out: KV1_5% Inh L929 @0.3 μM
Your answer is read as %, so omit the unit and give the number.

Per the reported human KV 1.5 (IKur) (Homo sapiens) data, NS(=O)(=O)c1cncc(-c2nc(NCc3ccccn3)c3c(-c4ccccc4)ccn3n2)c1C(F)F has inhibition at 0.3 µM of 93.7

The measured inhibition at 0.3 µM that COCCNC(=O)c1cncc(-c2nc(NCc3ccccc3)c3c(-c4ccccc4)ccn3n2)c1 showed for human KV 1.5 (IKur) (Homo sapiens) is 96.3

Entry c1ccc(-c2ccn3nc(-c4cn[nH]c4)nc(NCc4ccccn4)c23)cc1 , tested on human KV 1.5 (IKur) (Homo sapiens), has a reported inhibition at 0.3 µM of 97.7
